experiment: Microsomal stability in human liver microsomes assessed as clearance; format: ADME, Microsome; conditions: read-out: CLH
Measurement kind: microsomal CLint (µL/min/mg)
Give bare numbers, in µL/min/mg.

Form: compound = `COc1nc(-c2ccc(Cl)cc2)ccc1[C@@H](c1ccccc1)[C@@](O)(CCN(C)C)c1cccc2ccccc12` ; microsomal CLint = 39.4

###

test: Ratio of drug concentration in CD-1 mouse lung to plasma at 6.25 mg/kg,po measured after 96 hrs; assay type: ADME, organism-based
Kindly state Kp at 96 h for each of the entries shown.
Numbers only.

>>> quantitative_readout("COc1nc(-c2ccc(Cl)cc2)ccc1[C@@H](c1ccccc1)[C@@](O)(CCN(C)C)c1cccc2ccccc12")
33.7

# input for lookup
Form: molecule = `COc1nc2ccc(Br)cc2cc1[C@@H](c1ccccc1)[C@@](O)(CCN(C)C)c1cccc2ccccc12` ; Kp at 96 h = 29.6

###

Kindly state Kp at 96 h for each of the entries shown.
assay: Ratio of drug concentration in Sprague-Dawley rat lung to plasma at 5 mg/kg,po measured after 96 hrs; assay type: ADME, organism-based

The following molecules each have a reported value; give each one's Kp at 96 h.
1. COc1nc2ccc(Br)cc2cc1[C@@H](c1ccccc1)[C@@](O)(CCN(C)C)c1cccc2ccccc12
2. COc1nc(-c2ccc(Cl)cc2)ccc1[C@@H](c1ccccc1)[C@@](O)(CCN(C)C)c1cccc2ccccc12

Result ::
[38.7, 71.1]

###

test: Clearance in Beagle dog at 0.5 mg/kg,iv; type: ADME, organism-based, Canis lupus familiaris; settings: in vivo
Measurement kind: clearance (mL/min/kg)
One number for each entry, in mL/min/kg.

Form: compound = `COc1nc(-c2ccc(Cl)cc2)ccc1[C@@H](c1ccccc1)[C@@](O)(CCN(C)C)c1cccc2ccccc12` ; clearance = 2.04

###

experiment: Cytotoxicity against human HeLa cells; format: toxicity, cell-based
Measurement kind: CC50

// known answers, use as guide
>>> result("COc1nc(-c2ccc(OC(F)(F)F)cc2)ccc1[C@@H](c1ccccc1)[C@@](O)(CCN(C)C)c1cccc2ccccc12")
"> 64 mg/L"
>>> result("COc1nc(-c2ccccc2Cl)ccc1[C@@H](c1ccccc1)[C@@](O)(CCN(C)C)c1cccc2ccccc12")
"> 64 mg/L"
>>> result("COc1nc(C2CCCCC2)ccc1[C@@H](c1ccccc1)[C@@](O)(CCN(C)C)c1cccc2ccccc12")
"57.7 mg/L"
>>> result("COc1nc(-c2ccc(F)cc2)ccc1[C@@H](c1ccccc1)[C@@](O)(CCN(C)C)c1cccc2ccccc12")
"> 64 mg/L"
>>> result("COc1nc(-c2ccc(C#N)cc2)ccc1[C@@H](c1ccccc1)[C@@](O)(CCN(C)C)c1cccc2ccccc12")
"> 64 mg/L"

The following molecules each have a reported value; give each one's CC50.
1. COc1nc2ccc(Br)cc2cc1[C@@H](c1ccccc1)[C@@](O)(CCN(C)C)c1cccc2ccccc12
2. COc1ncc(-c2ccccc2)cc1[C@@H](c1ccccc1)[C@@](O)(CCN(C)C)c1ccccc1
3. COc1nc(C2CCOCC2)ccc1[C@@H](c1ccccc1)[C@@](O)(CCN(C)C)c1cccc2ccccc12

Result ::
["> 64 mg/L", "11.9 mg/L", "22.5 mg/L"]

###

Reported IC50, Cytochrome P450 2D6 (Homo sapiens).

>>> result("COc1nc(-c2ccc(Cl)cc2)ccc1[C@@H](c1ccccc1)[C@@](O)(CCN(C)C)c1cccc2ccccc12")
"> 10 µM"

# input for lookup
Form: molecule = `COc1nc2ccc(Br)cc2cc1[C@@H](c1ccccc1)[C@@](O)(CCN(C)C)c1cccc2ccccc12` ; IC50 = > 10 µM

###

Kindly state fraction unbound for each of the entries shown.
assay: Plasma protein binding in human assessed as bound fraction; type: ADME, cell-free; details: read-out: PPB

>>> result("COc1nc2ccc(Br)cc2cc1[C@@H](c1ccccc1)[C@@](O)(CCN(C)C)c1cccc2ccccc12 [BEDAQUILINE]")
"< 0.01"

# input for lookup
Form: compound = `COc1nc(-c2ccc(Cl)cc2)ccc1[C@@H](c1ccccc1)[C@@](O)(CCN(C)C)c1cccc2ccccc12` ; fraction unbound = < 0.01

###

assay: Microsomal stability in mouse liver microsomes assessed as clearance; format: ADME, Microsome; details: read-out: CLH
Measurement kind: microsomal CLint (µL/min/mg)
One number for each entry, in µL/min/mg.

Form: compound = `COc1nc(-c2ccc(Cl)cc2)ccc1[C@@H](c1ccccc1)[C@@](O)(CCN(C)C)c1cccc2ccccc12` ; microsomal CLint = 71.3

###

assay: Efflux ratio of apparent permeability across basolateral to apical over apical to basolateral membrane in dog MDCK cells; type: ADME, cell-based, Canis lupus familiaris
Measurement kind: efflux ratio
Answers are plain numbers.

Form: molecule = `COc1nc(-c2ccc(Cl)cc2)ccc1[C@@H](c1ccccc1)[C@@](O)(CCN(C)C)c1cccc2ccccc12` ; efflux ratio = 2.54

###

experiment: Cytotoxicity against human HeLa cells; assay type: toxicity, cell-based
Kindly state CC50 for each of the entries shown.
Give bare numbers, in µg/mL.

// known answers, use as guide
>>> quantitative_readout("COc1nc(-c2ccncc2)ccc1[C@@H](c1ccccc1)[C@@](O)(CCN(C)C)c1cccc2ccccc12")
9.6
>>> quantitative_readout("COc1ncc(-c2ccccc2)cc1[C@@H](c1ccccc1)[C@@](O)(CCN(C)C)c1cc(F)cc(F)c1")
28.8
>>> quantitative_readout("COc1nc(-c2cnsc2)ccc1[C@@H](c1ccccc1)[C@@](O)(CCN(C)C)c1cccc2ccccc12")
28.8

# input for lookup
Form: compound = `COc1ncc(-c2ccccc2)cc1[C@@H](c1ccccc1)[C@@](O)(CCN(C)C)c1cccc2ccccc12` ; CC50 = 30.4

###

assay: AUC (0 to last) in mouse at 6.25 mg/kg,po; format: ADME, organism-based; design: time 0 - last, dose 6.25 mg/kg, route po; settings: in vivo
Measurement kind: AUC(0-t) (ng·h/mL)
One number for each entry, in ng·h/mL.

Form: molecule = `COc1nc(-c2ccc(Cl)cc2)ccc1[C@@H](c1ccccc1)[C@@](O)(CCN(C)C)c1cccc2ccccc12` ; AUC(0-t) = 10200

###

test: Clearance in Sprague-Dawley rat at 1 mg/kg,iv; type: ADME, organism-based; conditions: in vivo
Measurement kind: clearance (mL/min/kg)
Answers are plain numbers, in mL/min/kg.

Form: compound = `COc1nc(-c2ccc(Cl)cc2)ccc1[C@@H](c1ccccc1)[C@@](O)(CCN(C)C)c1cccc2ccccc12` ; clearance = 8.25

###

assay: Cytotoxicity against African green monkey Vero cells; assay type: toxicity, cell-based; details: chlorocebus sabaeus
Measurement kind: CC50

// known answers, use as guide
>>> result("COc1ncc(-c2ccccc2)cc1[C@@H](c1ccccc1)[C@@](O)(CCN(C)C)c1cc(F)cc(F)c1")
"> 50 mg/L"
>>> result("COc1nc2ccc(Br)cc2cc1[C@@H](c1ccccc1)[C@@](O)(CCN(C)C)c1cccc2ccccc12")
"> 50 mg/L"
>>> result("COc1nc(C(C)(C)C)ccc1[C@@H](c1ccccc1)[C@@](O)(CCN(C)C)c1cccc2ccccc12")
"27.6 mg/L"

# input for lookup
Form: compound = `COc1ncc(-c2ccccc2)cc1[C@@H](c1ccccc1)[C@@](O)(CCN(C)C)c1cc(F)ccc1F` ; CC50 = > 50 mg/L

###

assay: Apparent permeability across apical side to basolateral side in dog MDCK cells; format: ADME, cell-based, Canis lupus familiaris
Measurement kind: Papp A→B
Field note: include the unit after the figure.

>>> result("COc1nc(-c2ccc(Cl)cc2)ccc1[C@@H](c1ccccc1)[C@@](O)(CCN(C)C)c1cccc2ccccc12")
"0.04 ×10⁻⁶ cm/s"

# input for lookup
Form: molecule = `COc1nc2ccc(Br)cc2cc1[C@@H](c1ccccc1)[C@@](O)(CCN(C)C)c1cccc2ccccc12` ; Papp A→B = 0.06 ×10⁻⁶ cm/s

###

assay: Drug concentration in CD-1 mouse lung at 6.25 mg/kg,po measured after 96 hrs; assay type: ADME, organism-based; conditions: read-out: Ct
Measurement kind: concentration at 96 h (ng/g)
Answers are plain numbers, in ng/g.

>>> quantitative_readout("COc1nc(-c2ccc(Cl)cc2)ccc1[C@@H](c1ccccc1)[C@@](O)(CCN(C)C)c1cccc2ccccc12")
857

Form: compound = `COc1nc2ccc(Br)cc2cc1[C@@H](c1ccccc1)[C@@](O)(CCN(C)C)c1cccc2ccccc12` ; concentration at 96 h = 135

###

assay: Oral bioavailability in Sprague-Dawley rat at 5 mg/kg; type: ADME, organism-based; settings: in vivo
Measurement kind: bioavailability (%)
Give bare numbers, in %.

Form: compound = `COc1nc(-c2ccc(Cl)cc2)ccc1[C@@H](c1ccccc1)[C@@](O)(CCN(C)C)c1cccc2ccccc12` ; bioavailability = 36.7

###

test: Plasma protein binding in rat assessed as bound fraction; format: ADME, cell-free; details: read-out: PPB
Measurement kind: fraction unbound

>>> result("COc1nc2ccc(Br)cc2cc1[C@@H](c1ccccc1)[C@@](O)(CCN(C)C)c1cccc2ccccc12")
"< 0.01"

# input for lookup
Form: compound = `COc1nc(-c2ccc(Cl)cc2)ccc1[C@@H](c1ccccc1)[C@@](O)(CCN(C)C)c1cccc2ccccc12` ; fraction unbound = < 0.01

Cited source: ChEMBL document CHEMBL5113423
